Species: Rattus norvegicus
test_details: DrugMatrix - Regimen: Daily Repeat
Type: toxicity, organism-based, Sprague-Dawley
Parameters: regimen Daily Repeat, gender Male, age 6-8 weeks
test_parameters: in vivo, ip, 0 mg/kg, […], tissue Blood, route intraperitoneal, dose level Control, time 14 day, vehicle 100 % SALINE
attribute_measured: ABSOLUTE LYMPHOCYTE (cells/µL)

* CADMIUM DICHLORIDE | 13500

* * *

Species on record: Rattus norvegicus
test_details: DrugMatrix - Regimen: Daily Repeat
Assay type: toxicity, organism-based, Sprague-Dawley
Design: regimen Daily Repeat, gender Male, age 6-8 weeks
test_parameters: in vivo, po, 0 mg/kg, 72 h, tissue Blood, route oral GAVAGE, dose level Control, time 3 day, […]
attribute_measured: LEUKOCYTE COUNT

• CC/C(=C(/CC)c1ccc(O)cc1)c1ccc(O)cc1 = 11.72 x10E3/uL
• S=C=Nc1cccc2ccccc12 [1-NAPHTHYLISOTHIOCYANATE] = 10.68 x10E3/uL
• O=C(O)Cc1ccccc1Nc1c(Cl)cccc1Cl = 9.52 x10E3/uL
• COc1ccc2[nH]c([S+]([O-])Cc3ncc(C)c(OC)c3C)nc2c1 (stereo unspecified) = 14.03 x10E3/uL
• CCCCCCCCc1ccc(O)cc1 = 12.45 x10E3/uL
• Cc1cccc(Nc2ccncc2S(=O)(=O)NC(=O)NC(C)C)c1 [TORSEMIDE] = 9.73 x10E3/uL
• C[C@H]1O[C@@H](O[C@H]2[C@@H](O)C[C@H](O[C@H]3[C@@H](O)C[C@H](O[C@H]4CC[C@@]5(C)[C@H](CC[C@@H]6[C@@H]5CC[C@]5(C)[C@@H](C7=CC(=O)OC7)CC[C@]65O)C4)O[C@@H]3C)O[C@@H]2C)C[C@H](O)[C@@H]1O = 10.65 x10E3/uL
• CC(C)(Oc1ccc(C2CCCc3ccccc32)cc1)C(=O)O (stereo unspecified) = 12.88 x10E3/uL
• CCOC(=O)C1=C(C)NC(C)=C(C(=O)OC)C1c1cccc([N+](=O)[O-])c1 (stereo unspecified) = 10.22 x10E3/uL
• CC(=O)Nc1cccc(O)c1 = 16.6 x10E3/uL
• CC(C)Cc1ccc(C(C)C(=O)O)cc1 (stereo unspecified) = 8.7 x10E3/uL
• CCOC(=O)C(C)(C)Oc1ccc(Cl)cc1 [CLOFIBRATE] = 7.32 x10E3/uL
• C[C@]12CC[C@@H]3c4ccc(O)cc4CC[C@H]3[C@@H]1CC[C@@H]2O = 9.73 x10E3/uL
• CC(=O)Nc1ccc(O)cc1 = 6.95 x10E3/uL
• COCCOC(=O)C1=C(C)NC(C)=C(C(=O)OC(C)C)C1c1cccc([N+](=O)[O-])c1 (stereo unspecified) = 10.22 x10E3/uL
• Clc1ccc(Cl)cc1 = 11.77 x10E3/uL

* * *

Item-by-item account of BLOOD UREA NITROGEN
Species on record: Rattus norvegicus
test_details: DrugMatrix - Regimen: Daily Repeat
Assay type: toxicity, organism-based, Sprague-Dawley
Set-up: regimen Daily Repeat, gender Male, age 6-8 weeks
test_parameters: in vivo, iv, 0 mg/kg, 120 h, tissue Plasma, dose level Control, time 5 day, vehicle 100 % SALINE
attribute_measured: BLOOD UREA NITROGEN (mg/dL)

- COc1cccc2c1C(=O)c1c(O)c3c(c(O)c1C2=O)C[C@@](O)(C(=O)CO)C[C@@H]3O[C@H]1C[C@H](N)[C@@H](O)[C@H](C)O1 [EPIRUBICIN]: 18
- CC(=O)N[C@@H]1[C@H](Oc2c3cc4cc2Oc2ccc(cc2Cl)[C@@H](O[C@@H]2O[C@@H](CO)[C@@H](O)[C@H](O)[C@@H]2NC(C)=O)[C@@H]2NC(=O)[C@H](NC(=O)[C@@H]4NC(=O)[C@H]4NC(=O)[C@@H](Cc5ccc(c(Cl)c5)O3)NC(=O)[C@H](N)c3ccc(O)c(c3)Oc3cc(O)cc4c3)c3ccc(O)c(c3)-c3c(O[C@H]4O[C@H](CO)[C@@H](O)[C@@H](O)[C@@H]4O)cc(O)cc3[C@@H](C(=O)O)NC2=O)O[C@@H](CO)[C@@H](O)[C@@H]1O: 19.5
- CC[C@]1(O)C[C@@H]2CN(CCc3c([nH]c4ccccc34)[C@@](C(=O)OC)(c3cc4c(cc3OC)N(C)[C@H]3[C@@](O)(C(=O)OC)[C@H](OC(C)=O)[C@]5(CC)C=CCN6CC[C@]43[C@@H]65)C2)C1 [VINBLASTINE]: 16.17
